# testDescription: Calcium tolerance test in mice
# Assay type: in vivo
# conditionDescription: highest tolerated dose = dose resulting in zero weight gain, daily subcutaneous administration for 4 consecutive days
metric: HTD (µg/kg)
Output spec: scalar in µg/kg, unitless text.

Here are 4 molecules together with their reported answers.
> print(dat)
                                   molecule  reportedvalue
1  C=C1C(=CC=C2CCCC3(C)C(C(C)C/C=C\C(O)(C(F)(F)F)C(F)(F)F)=CCC23)CC(O)CC1F (centres unmarked)            8.0
2  C=C1C(=CC=C2CCCC3(C)C(C(C)CC#CC(C)(C)O)=CCC23)CC(O)CC1O (centres unmarked)            100
3  C=C1C(=CC=C2CCCC3(C)C(C(C)C/C=C\C(O)(C(F)(F)F)C(F)(F)F)=CCC23)CC(O)CC1O (centres unmarked)            2.5
4  C=C1/C(=C\C=C2/CCC[C@]3(C)C([C@@H](C)CC#CC(O)(C(F)(F)F)C(F)(F)F)=CC[C@@H]23)C[C@@H](O)C[C@@H]1O            6.0

Now look at this entry.
Lab note: C=C1C(=CC=C2CCCC3(C)C(C(C)CCCC(C)(C)O)=CCC23)CC(O)CC1O (centres unmarked) gave HTD of 30

###

# Tested on: HL-60 cells
# testDescription: HL-60 cell differentiation (NBT reduction)
# Format: cell-based
# conditionDescription: Homo sapiens, HL-60, 72 h, concentration leading to 50% of maximal differentiation achieved with 100-1000 nM calcitriol, 3 days, read-out: ED50 (the source's name)
metric: pEC50
To interpret pEC50, take it as minus log10 of a concentration measured in moles per litre.

Form field pEC50 for item "C=C1/C(=C\C=C2/CCC[C@]3(C)C([C@@H](C)C/C=C/C(O)(C(F)(F)F)C(F)(F)F)=CC[C@@H]23)C[C@@H](O)C[C@@H]1O" on HL-60 cells: 9.43
